Data provenance: ChEMBL document CHEMBL3259696

Test system: Plasma
Test: Cmax in human plasma assessed as berberrubine at 500 mg, po after 4 hrs by HPLC-ESIMS/MS analysis
Format: ADME, organism-based
Parameters: dose 500 mg, route oral
Conditions: in vivo
measure-name: Cmax (nM)
Numbers only; they are read as nM.

Input: What does the data say about its Cmax? Entry: COc1ccc2cc3[n+](cc2c1OC)CCc1cc2c(cc1-3)OCO2.[Cl-] [BERBERINE CHLORIDE]
Output: 1.4

###

# maps each entry to its logD at 168 h
Test: 1-Octanol-water partition coefficient, log P of the compound at pH 8.6 after 1 week by HPLC-ESIMS/MS analysis
Assay type: physicochemical
API note: the answer field is a bare number with no unit suffix.

Answered cases to consult:
compound: COc1ccc2cc3[n+](cc2c1OC)CCc1cc(O)c(O)cc1-3.[Cl-]
logD at 168 h: -0.5
//
compound: COc1ccc2cc3[n+](cc2c1OC)CCc1cc2c(cc1-3)OCO2.[Cl-] [BERBERINE CHLORIDE]
logD at 168 h: -1.2
//
compound: COc1cc2c(cc1O)CC[n+]1cc3c(OC)c(OC)ccc3cc1-2.[Cl-] [JATRORRHIZINE CHLORIDE]
logD at 168 h: 0.1
//
compound: COc1ccc2cc3n(cc-2c1=O)CCc1cc2c(cc1-3)OCO2
logD at 168 h: 1.6

Switching to the query record.
Input: What does the data say about its logD at 168 h? Entry: COc1ccc2cc3[n+](cc2c1O)CCc1cc2c(cc1-3)OCO2.[Cl-] [BERBERRUBINE CHLORIDE]
Output: 1.6

###

Tested on: Plasma
Assay: Cmax in human plasma assessed as demethyleneberberin at 500 mg, po by HPLC-ESIMS/MS analysis
Assay type: ADME, organism-based
Design: dose 500 mg, route oral
Details: in vivo
measure-name: Cmax (nM)
Numbers only; they are read as nM.

Input: What does the data say about its Cmax? Entry: COc1ccc2cc3[n+](cc2c1OC)CCc1cc2c(cc1-3)OCO2.[Cl-] [BERBERINE CHLORIDE]
Output: 0.14

###

Assay: Solubility of the compound in sodium phosphate buffer at pH 4.5 at 25 degC after 1 week by HPLC-ESIMS/MS analysis
Format: physicochemical
# maps each entry to its solubility at 168 h
Put your answer as a value accompanied by its unit after it.

compound: COc1ccc2cc3[n+](cc2c1OC)CCc1cc2c(cc1-3)OCO2.[Cl-] [BERBERINE CHLORIDE]
measure-name: solubility at 168 h
measured-value: 8200 µM
//
compound: COc1ccc2cc3[n+](cc2c1OC)CCc1cc(O)c(O)cc1-3.[Cl-]
measure-name: solubility at 168 h
measured-value: 200 µM
//
compound: COc1ccc2cc3[n+](cc2c1O)CCc1cc2c(cc1-3)OCO2.[Cl-] [BERBERRUBINE CHLORIDE]
measure-name: solubility at 168 h
measured-value: 4200 µM

Switching to the query record.
Input: What does the data say about its solubility at 168 h? Entry: COc1cc2c(cc1O)CC[n+]1cc3c(OC)c(OC)ccc3cc1-2.[Cl-] [JATRORRHIZINE CHLORIDE]
Output: 1500 µM

###

Tested on: Homo sapiens
Assay: Cmax at steady state in hypercholesterolemic patient assessed as berberrubine at 15 mg/kg/day administered for 3 months by HPLC-ESIMS/MS analysis
Format: ADME, organism-based
Parameters: dose 15 mg/kg/day
Settings: in vivo
measure-name: Cmax (nM)
Numbers only; they are read as nM.

Input: What is its Cmax for Homo sapiens? Entry: COc1ccc2cc3[n+](cc2c1OC)CCc1cc2c(cc1-3)OCO2.[Cl-] [BERBERINE CHLORIDE]
Output: 6.7

###

# maps each entry to its logD at 168 h
Assay: 1-Octanol-water partition coefficient, log P of the compound at pH 7 after 1 week by HPLC-ESIMS/MS analysis
Format: physicochemical

Answered cases to consult:
compound: COc1ccc2cc3[n+](cc2c1O)CCc1cc2c(cc1-3)OCO2.[Cl-] [BERBERRUBINE CHLORIDE]
logD at 168 h: 1.1

compound: COc1ccc2cc3[n+](cc2c1OC)CCc1cc2c(cc1-3)OCO2.[Cl-] [BERBERINE CHLORIDE]
logD at 168 h: -1.2

compound: COc1cc2c(cc1O)CC[n+]1cc3c(OC)c(OC)ccc3cc1-2.[Cl-] [JATRORRHIZINE CHLORIDE]
logD at 168 h: -1.2

compound: COc1ccc2cc3n(cc-2c1=O)CCc1cc2c(cc1-3)OCO2
logD at 168 h: 1.5

Switching to the query record.
Input: What does the data say about its logD at 168 h? Entry: COc1ccc2cc3[n+](cc2c1OC)CCc1cc(O)c(O)cc1-3.[Cl-]
Output: -1.1

###

Experiment: Solubility of the compound in sodium phosphate buffer at pH 6 at 25 degC after 1 week by HPLC-ESIMS/MS analysis
Format: physicochemical
measure-name: solubility at 168 h (µM)
Numbers only; they are read as µM.

Answered cases to consult:
molecule: COc1ccc2cc3[n+](cc2c1OC)CCc1cc(O)c(O)cc1-3.[Cl-]
measure-name: solubility at 168 h
measurement-unit: µM
measured-value: 200
--
molecule: COc1ccc2cc3[n+](cc2c1OC)CCc1cc2c(cc1-3)OCO2.[Cl-] [BERBERINE CHLORIDE]
measure-name: solubility at 168 h
measurement-unit: µM
measured-value: 7600
--
molecule: COc1cc2c(cc1O)CC[n+]1cc3c(OC)c(OC)ccc3cc1-2.[Cl-] [JATRORRHIZINE CHLORIDE]
measure-name: solubility at 168 h
measurement-unit: µM
measured-value: 1300

Switching to the query record.
Input: What does the data say about its solubility at 168 h? Entry: COc1ccc2cc3[n+](cc2c1O)CCc1cc2c(cc1-3)OCO2.[Cl-] [BERBERRUBINE CHLORIDE]
Output: 2000

###

Assay: 1-Octanol-water partition coefficient, log P of the compound at pH 4.5 after 1 week by HPLC-ESIMS/MS analysis
Format: physicochemical
We use -1 as the dividing line for logD at 168 h: on or above the line is Satisfied, below is Not satisfied.

Here's what some known entries look like.
compound: COc1ccc2cc3[n+](cc2c1OC)CCc1cc2c(cc1-3)OCO2.[Cl-] [BERBERINE CHLORIDE]
discrete-label: Not satisfied
//
compound: COc1ccc2cc3[n+](cc2c1O)CCc1cc2c(cc1-3)OCO2.[Cl-] [BERBERRUBINE CHLORIDE]
discrete-label: Satisfied
//
compound: COc1ccc2cc3n(cc-2c1=O)CCc1cc2c(cc1-3)OCO2
discrete-label: Satisfied
//
compound: COc1ccc2cc3[n+](cc2c1OC)CCc1cc(O)c(O)cc1-3.[Cl-]
discrete-label: Not satisfied

Next, consider the following compound.
Input: Hi team, for COc1cc2c(cc1O)CC[n+]1cc3c(OC)c(OC)ccc3cc1-2.[Cl-] [JATRORRHIZINE CHLORIDE] , is the recorded logD at 168 h at or above -1?
Output: Not satisfied

###

# maps each entry to its solubility at 168 h
Assay: Solubility of the compound in sodium phosphate buffer at pH 7 at 25 degC after 1 week by HPLC-ESIMS/MS analysis
Assay type: physicochemical
Numbers only; they are read as mM.

Input: What does the data say about its solubility at 168 h? Entry: COc1ccc2cc3[n+](cc2c1OC)CCc1cc2c(cc1-3)OCO2.[Cl-] [BERBERINE CHLORIDE]
Output: 9

Input: Same question, COc1ccc2cc3[n+](cc2c1OC)CCc1cc(O)c(O)cc1-3.[Cl-] this time
Output: 3.7

Input: Same question, COc1ccc2cc3[n+](cc2c1O)CCc1cc2c(cc1-3)OCO2.[Cl-] [BERBERRUBINE CHLORIDE] this time
Output: 1

Input: Same question, COc1cc2c(cc1O)CC[n+]1cc3c(OC)c(OC)ccc3cc1-2.[Cl-] [JATRORRHIZINE CHLORIDE] this time
Output: 12.4

###

Molecular target: Albumin (Bos taurus, UniProt P02769)
Sequence (P02769 whole entry): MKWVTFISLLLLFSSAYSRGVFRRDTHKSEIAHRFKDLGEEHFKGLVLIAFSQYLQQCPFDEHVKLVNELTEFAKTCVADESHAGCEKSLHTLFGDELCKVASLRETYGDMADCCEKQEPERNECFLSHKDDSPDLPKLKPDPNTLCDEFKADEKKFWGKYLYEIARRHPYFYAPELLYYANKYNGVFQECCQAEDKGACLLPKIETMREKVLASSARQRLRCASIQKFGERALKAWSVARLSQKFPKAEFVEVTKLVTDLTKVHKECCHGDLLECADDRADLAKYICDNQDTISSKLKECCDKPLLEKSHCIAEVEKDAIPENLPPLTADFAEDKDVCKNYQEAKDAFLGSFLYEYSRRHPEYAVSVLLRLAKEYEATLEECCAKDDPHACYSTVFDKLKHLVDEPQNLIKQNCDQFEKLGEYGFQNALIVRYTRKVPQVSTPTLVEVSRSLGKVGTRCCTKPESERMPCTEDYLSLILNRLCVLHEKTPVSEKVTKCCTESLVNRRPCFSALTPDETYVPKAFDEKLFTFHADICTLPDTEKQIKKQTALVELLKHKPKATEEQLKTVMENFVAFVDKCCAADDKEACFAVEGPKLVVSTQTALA
Test: Binding affinity to bovine serum albumin by fluorescence quenching assay
Assay type: ADME
Conditions: cattle, isolated protein
# maps each entry to its Kb
Numbers only; they are read as ×10³ L/mol.

compound: COc1ccc2cc3[n+](cc2c1OC)CCc1cc(O)c(O)cc1-3.[Cl-]
measure-name: Kb
measurement-unit: ×10³ L/mol
measured-value: 1.98

compound: COc1cc2c(cc1O)CC[n+]1cc3c(OC)c(OC)ccc3cc1-2.[Cl-] [JATRORRHIZINE CHLORIDE]
measure-name: Kb
measurement-unit: ×10³ L/mol
measured-value: 1.73

Input: What is its Kb for Albumin (Bos taurus, UniProt P02769)? Entry: COc1ccc2cc3[n+](cc2c1OC)CCc1cc2c(cc1-3)OCO2.[Cl-] [BERBERINE CHLORIDE]
Output: 3.37

Input: Same question, COc1ccc2cc3[n+](cc2c1O)CCc1cc2c(cc1-3)OCO2.[Cl-] [BERBERRUBINE CHLORIDE] this time
Output: 1.51
